B1: Transitional endoplasmic reticulum ATPase, residues 26 to 106; numbered along this chain, P55072 (parent)
chain: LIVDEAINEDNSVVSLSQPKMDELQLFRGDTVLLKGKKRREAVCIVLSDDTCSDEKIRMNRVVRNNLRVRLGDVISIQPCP

Variants of: B1
Experiment: abundance fitness (aPCA) (normalised: wild type 0, dead -1); higher = more abundant; growth selection in yeast, the domain comes from the species named
Conditions: Homo sapiens
endpoint-label: abundance fitness

variant-identifier | endpoint-label | experimental-value
Q78C | abundance fitness | -0.105
I7E | abundance fitness | 0.127
F27V | abundance fitness | 0.044
A42C | abundance fitness | 0.116
V74C | abundance fitness | -0.039
D10A | abundance fitness | -0.059
K37C | abundance fitness | -0.226
Q78F | abundance fitness | -0.345
V63W | abundance fitness | -0.342
S15Q | abundance fitness | 0.082
R58F | abundance fitness | -0.216
R64H | abundance fitness | -0.415
V46L | abundance fitness | -0.183
L24W | abundance fitness | -0.265
D73C | abundance fitness | -0.343
V43C | abundance fitness | -0.012
S15N | abundance fitness | 0.08
V62N | abundance fitness | 0.109
V63L | abundance fitness | 0
V43A | abundance fitness | -0.026
K35W | abundance fitness | -0.154
S12G | abundance fitness | 0.029

Values from the Human Domainome abundance scans (Beltran et al. 2025)
